ASSAY COMMENT: Inhibition of P-glycoprotein NBD2 domain
OBSERVABLE: pKd
Numbers only, as −log10 of the molar value.

Would you mind telling me what pKd value was observed for `CCCCCC(=O)O[C@H]1[C@@H](C)C[C@]2(OC(C)=O)C(=O)/C(C)=C/[C@@H]3[C@H](CC/C(CO)=C/[C@@H]12)C3(C)C` ? 4.77

These data points were gathered from ChEMBL document CHEMBL1158894.
